B1: glmS ribozyme (parent)
chain: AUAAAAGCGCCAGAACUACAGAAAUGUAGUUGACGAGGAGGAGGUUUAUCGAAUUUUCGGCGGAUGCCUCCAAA

- Variants of: B1
- protocol.details: kcat; higher = faster cleavage; RNA array
- condition.description: with glucosamine-6-phosphate
This sample holds only a part of the variants without activity.
quantity.name: kcat (s⁻¹)
Entry rule: numbers only, all in s⁻¹.

C50U A53C U54G has a reported kcat of 1.06e-05

U55A C61U has a reported kcat of 1.43e-05

G41A U47G has a reported kcat of 0.00145

A14U A42G has a reported kcat of 0.0156

A52C U54A has a reported kcat of 1.15e-05

C11U C58G has a reported kcat of 3.35e-05

G62A U69G has a reported kcat of 3.25e-05

G40C G41U has a reported kcat of 8.06e-05

U31A A52G C68A has a reported kcat of 1.75e-05
